Reference source: ChEMBL document CHEMBL4725429

TARGET_SYSTEM: Tyrosine-protein kinase BTK (Homo sapiens)
ASSAY_COMMENT: Inhibition of recombinant human His-tagged full length BTK expressed in baculovirus expression system using TK1 as substrate incubated for 60 mins by HTRF assay
MEASUREMENT_LABEL: IC50 (nM)
Field: numeric (nM). Do not append units.

// below: answered molecules
[
  {
    "MOLECULE": "C=CC(=O)N1CCC[C@@H](Nc2ncnc(N)c2-n2ncc3cc(Oc4ccccc4)ccc32)C1",
    "TARGET_SYSTEM": "Tyrosine-protein kinase BTK (Homo sapiens)",
    "UNIT_ABBREVIATION": "nM",
    "IC50": 1670
  },
  {
    "MOLECULE": "C=CC(=O)N(C)CCn1nc(-c2ccc(Oc3ccccc3)cc2)c2c(N)n[nH]c(=O)c21",
    "TARGET_SYSTEM": "Tyrosine-protein kinase BTK (Homo sapiens)",
    "UNIT_ABBREVIATION": "nM",
    "IC50": 1.2
  },
  {
    "MOLECULE": "C=CC(=O)N1CCCC(n2nc(-c3ccc(Oc4ccccc4)cc3)c3cc4c(N)ncnc4cc32)C1 (configuration not stated)",
    "TARGET_SYSTEM": "Tyrosine-protein kinase BTK (Homo sapiens)",
    "UNIT_ABBREVIATION": "nM",
    "IC50": 1240
  },
  {
    "MOLECULE": "CC#CC(=O)N1CCC[C@@H](n2nc(-c3ccc(Oc4ccccc4)cc3)c3c(N)n[nH]c(=O)c32)C1",
    "TARGET_SYSTEM": "Tyrosine-protein kinase BTK (Homo sapiens)",
    "UNIT_ABBREVIATION": "nM",
    "IC50": 12
  },
  {
    "MOLECULE": "CN(C)C/C=C/C(=O)N(C)CCn1nc(-c2ccc(Oc3ccccc3)cc2)c2c(N)n[nH]c(=O)c21",
    "TARGET_SYSTEM": "Tyrosine-protein kinase BTK (Homo sapiens)",
    "UNIT_ABBREVIATION": "nM",
    "IC50": 35
  }
]

We next turn to a different molecule, shown below.
Query string: Record C=CC(=O)N1CC(n2nc(-c3ccc(Oc4ccccc4)cc3)c3c(N)n[nH]c(=O)c32)C1 : what is its IC50 with Tyrosine-protein kinase BTK (Homo sapiens)?
Result string: 9.8

----------
ASSAY_COMMENT: Clearance in Sprague-Dawley rat at 2 mg/kg, iv measured upto 24 hrs by LC-MS/MS analysis
CONDITION: in vivo
MEASUREMENT_LABEL: clearance (mL/min/kg)
Field: numeric (mL/min/kg). Do not append units.

Query string: Please give the measured clearance for this compound: C=CC(=O)N1CCC[C@@H](n2nc(-c3ccc(Oc4ccccc4)cc3)c3c(N)n[nH]c(=O)c32)C1
Result string: 54.6

----------
The following compounds are listed with their measured bioavailability values.
ASSAY_COMMENT: Oral bioavailability in BALB/c mouse at 2 mg/kg measured upto 24 hrs by LC-MS/MS analysis
Type: ADME, organism-based
CONDITION: in vivo
Field: numeric (%). Do not append units.

[
  {
    "SMILES_REPR": "C=CC(=O)N1CCC[C@@H](n2nc(-c3ccc(Oc4ccccc4)cc3)c3c(N)ncnc32)C1",
    "bioavailability (%)": 1.8
  }
]

We next turn to a different compound, shown below.
Query string: Please give the measured bioavailability for this compound: C=CC(=O)N1CCC[C@@H](n2nc(-c3ccc(Oc4ccccc4)cc3)c3c(N)n[nH]c(=O)c32)C1
Result string: 11.2

----------
ASSAY_COMMENT: Protein binding in mouse plasma at 2 uM incubated for 4 hrs by LC-MS/MS analysis
Assay type: ADME, cell-free
CONDITION: read-out: PPB (converted)
MEASUREMENT_LABEL: fraction unbound at 4 h, 2 µM

[
  {
    "SMILES_REPR": "C=CC(=O)N1CCC[C@@H](n2nc(-c3ccc(Oc4ccccc4)cc3)c3c(N)ncnc32)C1",
    "fraction unbound at 4 h, 2 µM": 0.038
  }
]

We next turn to a different compound, shown below.
Query string: Please give the measured fraction unbound at 4 h, 2 µM for this compound: C=CC(=O)N1CCC[C@@H](n2nc(-c3ccc(Oc4ccccc4)cc3)c3c(N)n[nH]c(=O)c32)C1
Result string: 0.047

----------
ASSAY_COMMENT: Cmax in BALB/c mouse 2 mg/kg, po measured upto 24 hrs by LC-MS/MS analysis
Format: ADME, organism-based
Set-up: route oral, dose 2 mg/kg, time <=24
CONDITION: in vivo
MEASUREMENT_LABEL: Cmax (nM)
Field: numeric (nM). Do not append units.

// below: answered molecules
[
  {
    "MOLECULE": "C=CC(=O)N1CCC[C@@H](n2nc(-c3ccc(Oc4ccccc4)cc3)c3c(N)n[nH]c(=O)c32)C1",
    "Cmax (nM)": 252
  },
  {
    "MOLECULE": "C=CC(=O)N(C)CCn1nc(-c2ccc(Oc3ccccc3)cc2)c2c(N)n[nH]c(=O)c21",
    "Cmax (nM)": 123
  },
  {
    "MOLECULE": "C=CC(=O)N1CCC[C@@H](n2nc(-c3ccc(Oc4ccccc4)cc3)c3c(N)ncnc32)C1 [IBRUTINIB]",
    "Cmax (nM)": 55.3
  },
  {
    "MOLECULE": "C=CC(=O)N[C@H]1CC[C@@H](n2nc(-c3ccc(Oc4ccccc4)cc3)c3c(N)n[nH]c(=O)c32)CC1",
    "Cmax (nM)": 290
  }
]

Query string: Please give the measured Cmax for this molecule: C=CC(=O)N1CC[C@@H](n2nc(-c3ccc(Oc4ccccc4)cc3)c3c(N)n[nH]c(=O)c32)C1
Result string: 137

----------
ASSAY_COMMENT: AUC (0 to last) in Sprague-Dawley rat at 2 mg/kg, iv measured upto 24 hrs by LC-MS/MS analysis
Type: ADME, organism-based
Parameters: route intravenous, dose 2 mg/kg, time <=24
CONDITION: Sprague-Dawley, in vivo
MEASUREMENT_LABEL: AUC(0-t) at 24 h
Returns: string containing the numeric result and its unit.

Query string: Please give the measured AUC(0-t) at 24 h for this compound: C=CC(=O)N1CCC[C@@H](n2nc(-c3ccc(Oc4ccccc4)cc3)c3c(N)n[nH]c(=O)c32)C1
Result string: 604 ng·h/mL

----------
TARGET_SYSTEM: Tyrosine-protein kinase BTK (Homo sapiens, UniProt Q06187)
Sequence (Q06187 whole entry): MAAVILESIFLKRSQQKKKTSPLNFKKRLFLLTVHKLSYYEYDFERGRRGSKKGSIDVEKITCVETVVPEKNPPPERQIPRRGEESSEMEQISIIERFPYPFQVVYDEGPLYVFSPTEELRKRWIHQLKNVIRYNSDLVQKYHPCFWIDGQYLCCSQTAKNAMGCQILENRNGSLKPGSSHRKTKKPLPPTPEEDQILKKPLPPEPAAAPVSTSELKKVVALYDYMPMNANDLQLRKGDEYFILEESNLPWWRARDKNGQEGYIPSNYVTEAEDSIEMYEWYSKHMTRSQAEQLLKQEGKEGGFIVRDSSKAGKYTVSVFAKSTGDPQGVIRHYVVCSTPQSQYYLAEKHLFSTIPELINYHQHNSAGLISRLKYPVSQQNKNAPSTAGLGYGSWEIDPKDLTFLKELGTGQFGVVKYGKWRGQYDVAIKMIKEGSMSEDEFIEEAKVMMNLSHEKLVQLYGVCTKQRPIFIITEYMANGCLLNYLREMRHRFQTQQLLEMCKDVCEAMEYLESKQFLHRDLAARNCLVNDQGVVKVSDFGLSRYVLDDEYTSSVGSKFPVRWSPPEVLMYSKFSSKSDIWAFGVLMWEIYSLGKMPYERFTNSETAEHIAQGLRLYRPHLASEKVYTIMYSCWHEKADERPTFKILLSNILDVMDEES
ASSAY_COMMENT: Inhibition of recombinant human His-tagged full length BTK expressed in baculovirus expression system using TK1 as substrate incubated for 60 mins by HTRF assay
MEASUREMENT_LABEL: pIC50
pIC50 here: minus log base 10 of the concentration, concentration in moles per litre.

[
  {
    "MOLECULE": "Nc1n[nH]c(=O)c2c1c(-c1ccc(Oc3ccccc3)cc1)nn2[C@@H]1CCCN(C(=O)/C=C/CN2CCOCC2)C1",
    "pIC50": 7.89
  },
  {
    "MOLECULE": "C=CC(=O)NC1CCC[C@@H](n2nc(-c3ccc(Oc4ccccc4)cc3)c3c(N)n[nH]c(=O)c32)C1 (some centres undefined)",
    "pIC50": 8.00
  },
  {
    "MOLECULE": "N#C/C(=C\\C1CC1)C(=O)N1CCC[C@@H](n2nc(-c3ccc(Oc4ccccc4)cc3)c3c(N)n[nH]c(=O)c32)C1",
    "pIC50": 7.66
  }
]

Query string: Please give the measured pIC50 for this molecule: C=CC(=O)N1CCC[C@@H](n2nc(-c3ccc(Oc4ccccc4)cc3)c3c(N)n[nH]c(=O)c32)C1
Result string: 8.68

Query string: Next: C=CS(=O)(=O)N1CCC[C@@H](n2nc(-c3ccc(Oc4ccccc4)cc3)c3c(N)n[nH]c(=O)c32)C1
Result string: 8.38

Query string: Next: C=CC(=O)N1CC[C@@H](n2nc(-c3ccc(Oc4ccccc4)cc3)c3c(N)n[nH]c(=O)c32)C1
Result string: 8.85

Query string: Next: C=CC(=O)N1CC2(CC(n3nc(-c4ccc(Oc5ccccc5)cc4)c4c(N)n[nH]c(=O)c43)C2)C1
Result string: 7.34

Query string: Next: C=CC(=O)N1CCCCC(n2nc(-c3ccc(Oc4ccccc4)cc3)c3c(N)n[nH]c(=O)c32)C1 (centres undefined)
Result string: 8.17
